src = PubChem BioAssay (NCI)

# Test system: OVCAR-5 ovarian
# experimental.details: NCI-60 one-dose screen, 48 h
# condition.context: 10 µM unless noted
About 83,000 compounds went through this panel and 20% of them were active in at least one assay; those are over-represented in the sample as a whole. The source made the active and inactive calls. The calls were made as follows: active = growth percent below 10; inactive = the rest.
Respond only with the outcome that fits, drawn from Yes = active, No = inactive

input: What did this assay record as the result for CCOC(=O)/C(F)=C/C1CC1C(c1ccccc1)c1ccccc1 (centres undefined) ?
output: No

input: What call does the record list for CCC1(OC(=O)c2ccccc2SSCCOC(=O)CCCCC2SCC3NC(=O)NC32)C(=O)OCc2c1cc1n(c2=O)Cc2cc3ccccc3nc2-1 (centres undefined) ?
output: No

input: Would you mind telling me which call this test gave `O=C(N/N=C/c1occc1Br)c1[nH]c2ccc(Br)cc2c1-c1ccccc1` ?
output: Yes

input: Kindly provide the recorded test outcome for the following compound: CN(C)c1nc(NCCNS(=O)(=O)c2ccc(C3=Nc4c(N)nc(N)nc4NC(c4ccc(C(F)(F)F)cc4)C3)cc2)nc(N2CCOCC2)n1 (centres undefined)
output: No

* * *

# Tested on: BT-549 breast
# experimental.details: NCI-60 one-dose screen, 48 h
# condition.context: 10 µM unless noted
This is part of a sample that, as a whole, favours compounds with a hit. Of some 83,000 tested, about 20% had one in any assay. The source made the active and inactive calls. Rule for the calls: active = growth percent below 10; inactive = the rest.
Hello, when you answer, please use one of the following outcomes: active, inactive

Solved entries (count: 6):
smiles	measured.target	label
O=C(NNC(=O)c1ccc(OCc2nc3ccc(Cl)cc3[nH]2)cc1)Nc1ccc(Cl)c(Cl)c1	BT-549 breast	inactive
Cc1cnc2ccc(Oc3ccccc3-c3ccccc3)nn12	BT-549 breast	inactive
COc1ccc(/C=C/C(=O)c2ccc(OC)c(S(N)(=O)=O)c2)c(C(F)(F)F)c1	BT-549 breast	active
O=C(N/N=C/c1ccoc1)c1[nH]c2ccc(Br)cc2c1-c1ccccc1	BT-549 breast	active
O=C(Cn1c(/C=C/c2ccc([N+](=O)[O-])cc2)nc2ccccc2c1=O)Nc1ccccc1	BT-549 breast	inactive
COc1ccc(NC(=O)Cn2c(/C=C/c3cccc(Br)c3)nc3ccccc3c2=O)cc1	BT-549 breast	inactive

input: Please let me know the test result on file for `COc1ccc(-c2nc3ccc(-c4nnc(SCc5ccccc5)o4)cc3[nH]2)cc1OC` .
output: inactive

input: Any idea what this test logged for `O=C(Cn1c(-c2ccccc2)nc2ccccc21)N=Nc1c(O)[nH]c2ccc(Br)cc12` ?
output: active

input: For `O=C1NC(=NC23CC4CC(CC(C4)C2)C3)N/C1=C\c1ccc2ncccc2c1` , which call appears in the assay record?
output: inactive

* * *

# Test system: RXF 393 renal
# experimental.details: NCI-60 one-dose screen, 48 h
# condition.context: 10 µM unless noted
The panel holds about 83,000 compounds, 20% with a hit somewhere; the sample as a whole holds those more often. Active and inactive are the calls of the source. Rule for the calls: active = growth percent below 10; inactive = the rest.
Choose the fitting class; nothing outside true = active, false = inactive is accepted.

smiles	measured.target	label
Clc1ccc(-c2nc3c4c(-c5ccccc5)c(-c5ccccc5)n(Cc5ccccc5)c4ncn3n2)cc1	RXF 393 renal	true
Cc1ccccc1NC(=O)c1cccc(NC(=O)CCl)c1	RXF 393 renal	false
CCOC(=O)c1ccc(NC(=S)NC(=O)c2cccc(NC(=O)c3ccc(C)cc3)c2)cc1	RXF 393 renal	false
COc1ccc2[nH]c(=O)c(CSc3ccccc3Nc3nccc(-c4ccc(C(F)(F)F)cc4)n3)cc2c1	RXF 393 renal	true
CN1CCc2c(sc3ncnc(N/N=C/c4cccc(Cl)c4Cl)c23)C1	RXF 393 renal	false

input: Field: outcome | Entry: `COc1ccc(C(=O)/C=C/c2ccc3c(c2)OCCO3)cc1S(N)(=O)=O`
output: false

input: Record request — test call for `C=CCn1c(O)c(N=Nc2nc(-c3cc4ccccc4oc3=O)cs2)c2ccccc21`
output: true

input: # lookup: test call for `COc1ccc(-c2cc(-c3cc(OC)c(OC)c(OC)c3)[nH]c(=O)c2C#N)cc1`
output: false

input: Which outcome was entered for the molecule `NCCCCn1c(SCCc2c[nH]c3ccccc23)nnc1-c1ccc2ccccc2n1` in this test?
output: true

* * *

# System: NCI-H23 lung
# experimental.details: NCI-60 one-dose screen, 48 h (100 = growth as untreated, 0 = no growth, -100 = all killed)
# condition.context: 10 µM unless noted
# Procedure: Growth inhibition of the NCI-H23 human Non-Small Cell Lung tumor cell line is measured as a screen for anti-cancer activity. Cells are grown in 96 well plates and exposed to the test compound for 48 hours. Compounds are tested at a single concentration, which is 10^-5 M for most compounds. The reported endpoint is percent growth (GI% or GIPRCNT), where numbers from 0 - 100% represent growth inhibition, and numbers from -100% - 0 represent cell death. […]
This is part of a sample that, as a whole, favours compounds with a hit. Of some 83,000 tested, about 20% had one in any assay.
recorded.metric: growth (%)
Numbers only, in %.

Take a look at these entries with their results.
smiles	value
COc1ccc2[nH]c(O)c(N=NC(=O)c3ccc4nc(-c5ccc(Cl)cc5)[nH]c4c3)c2c1	65.6
COC(=O)CSC1=C(C)C(=O)C(OC)=C(OC)C1=O	94.3

Batch: growth for all items listed.
1. O=C(N/N=C/c1occc1Br)c1[nH]c2ccc(Br)cc2c1-c1ccccc1
2. C[C@H](NC(=O)c1ccc2c(-c3ccc(C(F)(F)F)cc3)cccc2c1)c1ccccn1
3. c1n[nH]cc1-c1nc2ccc3cn[nH]c3c2c2c1CCCC2
4. CCCCCCCCCCCCCCCCCC(=O)Nc1ccc(OC)cc1

output:
1. -100
2. 70.7
3. 90.2
4. 105

Give one value of growth per listed compound.
1. Clc1ccc2c(NCCNC34CC5CC(CC(C5)C3)C4)ccnc2c1
2. COc1cncc(-c2ccc3ncnc(N4CCc5ccc(Cl)cc54)c3c2)c1

output:
[-73.2, 8.73]

* * *

# Tested on: M14 melanoma
# experimental.details: NCI-60 one-dose screen, 48 h
# condition.context: 10 µM unless noted
The panel holds about 83,000 compounds, 20% with a hit somewhere; the sample as a whole holds those more often. The source made the active and inactive calls. The calls were made as follows: active = growth percent below 10; inactive = the rest.
Can you answer with just one of these options? active, inactive

Worked cases, answers included:
compound	label
COc1cc(CNC(=O)C[C@H](C)CCC=C(C)C)ccc1OCc1cn(-c2ccccc2Cl)nn1	inactive
COC(=O)c1cc(C(=O)CBr)n2c1ccc1c3ccccc3ccc12	inactive
COc1cc(CNC(=O)C[C@H](C)CCC=C(C)C)ccc1OCc1cn(-c2ccc(Cl)c(Cl)c2)nn1	inactive
COc1c2c(c(Br)c3c1C(CCc1ccccc1)N(C)CC3)OCO2 (configuration not stated)	inactive
Cc1ccc(C(=O)Nc2cc(-n3ccnc3)cc(C(F)(F)F)c2)cc1-n1cc(-c2cnc3cccnn23)nn1	inactive
Clc1ccc2c(NCCNC34CC5CC(CC(C5)C3)C4)ccnc2c1	active

input: What is the recorded call for this compound in the test? `COc1cc(CNC(=O)C[C@H](C)CCC=C(C)C)ccc1OCc1cn(-c2ccccc2F)nn1`
output: inactive

input: Identify the outcome logged in this assay for the compound shown: `NC(=Nc1ccc(OCCCCCCCCn2cnnn2)cc1)c1ccccc1`
output: inactive

input: Tell me the recorded outcome of this test for `Cc1nn(-c2ccccc2)c2nc(C)n(C(=O)N/N=C/c3cccc([N+](=O)[O-])c3)c(=O)c12` .
output: inactive

input: What classification did `O=C(CSc1nnc(-c2ccc(-c3nc4ccccc4[nH]3)cc2)o1)Nc1ccc(Br)cc1` end up with in this test?
output: active

input: # lookup: test call for `C=CC(=O)Nc1ccc(C(=O)/C=C/c2ccc(N(C)C)cc2)c(O)c1`
output: active

input: Please let me know the test result on file for O=C1CCC(N2C(=O)c3cccc(NCCOCCOCCOCCC(=O)NCCCC(=O)NC(c4ccc5c(c4)OCO5)c4cc(Cl)c5cccnc5c4O)c3C2=O)C(=O)C1 (configuration not stated) .
output: inactive

input: Please indicate how the test categorized `COc1cccc(-c2ccc(/C=N/NC(=O)c3[nH]c4ccc(Br)cc4c3-c3ccccc3)s2)c1` .
output: active

input: Could you kindly confirm the outcome this assay logged for `C/C(=N\Nc1ccc(C(=O)O)cc1)c1cnn(-c2cc(=O)[nH]c3ccc(C)cc23)c1C` ?
output: inactive

input: Call for entry `COc1cc(/C=C/C(=O)c2ccc(S(=O)(=O)NCCNc3nc(N(C)C)nc(N4CCOCC4)n3)cc2)cc(OC)c1OC` :
output: active

input: Hello, I am checking results. What call was entered for `O=C(N/N=C/c1c[nH]c2ccccc12)Nc1ccc(F)c(Cl)c1` ?
output: inactive

input: Recorded test outcome, item `CCCCNC(=S)Nc1ccc(OCc2nc3ccc(Cl)cc3[nH]2)cc1`
output: inactive

input: How did this test come out for `O=[N+]([O-])c1cccc(-c2nnc3c(/C=C/c4ccc(F)cc4)nc4ccccc4n23)c1` ?
output: inactive

input: Fill in: this test's call for `COC(=O)c1cc(C(=O)C(F)(F)F)n2c3ccccc3c3ccccc3c12` is ___
output: inactive

input: Could you kindly confirm the outcome this assay logged for `Cc1nn(-c2ccccc2)c2nc(C)n(C(=O)N/N=C/c3ccccc3)c(=O)c12` ?
output: inactive

input: Lab log entry: `O=C(Cn1c(-c2ccccc2)nc2ccccc21)N=Nc1c(O)[nH]c2ccc(Cl)cc12` — outcome as called in the assay?
output: inactive

input: Kindly provide the recorded test outcome for the following compound: `Cn1cc(Nc2ncnc(-c3ccc(N4CCCC4)c(C#N)c3)n2)cn1`
output: inactive
